# test method notes: PAMPA-GIT
# cond: at three different pH values, 50 μM, positive control
attribute measured: Papp at 30 min, 50 μM

In: Write down Papp at 30 min, 50 μM measured for item NC(=O)N1c2ccccc2C=Cc2ccccc21 [carbamazepine]
Out: ~150 ×10⁻⁶ cm/s
